- target-entity: human DPP IV (Homo sapiens)
- Construct: extracellular fragment of protease DPP IV (aa29-766)
- Sequence (P27487 29-766): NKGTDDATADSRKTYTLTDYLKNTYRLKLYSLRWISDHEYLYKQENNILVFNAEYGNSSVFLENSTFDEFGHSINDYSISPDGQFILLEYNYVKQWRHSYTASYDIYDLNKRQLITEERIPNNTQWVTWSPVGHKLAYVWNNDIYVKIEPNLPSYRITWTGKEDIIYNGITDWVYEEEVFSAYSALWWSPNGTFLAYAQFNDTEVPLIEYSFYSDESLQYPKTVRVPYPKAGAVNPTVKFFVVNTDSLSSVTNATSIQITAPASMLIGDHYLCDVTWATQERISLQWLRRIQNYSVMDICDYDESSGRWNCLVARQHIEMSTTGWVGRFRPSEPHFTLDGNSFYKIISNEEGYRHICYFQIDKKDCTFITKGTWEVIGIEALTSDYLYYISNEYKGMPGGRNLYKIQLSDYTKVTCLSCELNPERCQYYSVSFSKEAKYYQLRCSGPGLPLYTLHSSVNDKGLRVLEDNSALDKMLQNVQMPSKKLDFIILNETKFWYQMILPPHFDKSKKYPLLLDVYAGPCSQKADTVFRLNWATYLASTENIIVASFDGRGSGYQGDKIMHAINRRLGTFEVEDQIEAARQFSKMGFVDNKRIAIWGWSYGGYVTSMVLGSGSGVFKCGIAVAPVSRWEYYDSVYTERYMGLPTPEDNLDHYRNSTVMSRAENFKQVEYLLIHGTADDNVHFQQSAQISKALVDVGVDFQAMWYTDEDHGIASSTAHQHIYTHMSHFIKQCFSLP
- method-notes: DPP IV activity screening (Ala-Pro-AMC fluorescence)
experimental-readout: pIC50
Lab note: report pIC50 as minus log10 of the concentration in molar units, number only.

N#Cc1ccccc1Cn1c(N2CCC[C@@H](N)C2)nc2c3c(sc2c1=O)CCCC3 [Compound 27]    7.45

Request - read-out pIC50 | tested on human DPP IV (Homo sapiens) | compound CS(=O)(=O)CCNC(=O)c1cc2nc(N3CCC[C@@H](N)C3)n(Cc3ccccc3C#N)c(=O)c2s1 [Compound 126]
7.70

Form entry - test system: human DPP IV (Homo sapiens); read-out: pIC50; compound: COC(=O)[C@@H]1CCCN1C(=O)c1csc2c(=O)n(Cc3ccccc3C#N)c(N3CCC[C@@H](N)C3)nc12 [Compound 91]
7.44

What value of pIC50 on human DPP IV (Homo sapiens) does N#Cc1ccccc1Cn1c(N2CCC[C@@H](N)C2)nc2c(C(N)=O)csc2c1=O [Compound 45] have?
8.45

Give recorded pIC50 with human DPP IV (Homo sapiens) for the following compound: N#Cc1ccccc1Cn1c(N2CCC[C@@H](N)C2)nc2c(N)csc2c1=O [Compound 84]
7.62

Param readout = pIC50; param system = human DPP IV (Homo sapiens); param query = CC(C)CCNC(=O)c1csc2c(=O)n(Cc3ccccc3C#N)c(N3CCC[C@@H](N)C3)nc12 [Compound 78] ; response: value
7.54
